// values below are reported inhibition
- tested.system: Leucine aminopeptidase (Plasmodium falciparum (isolate 3D7)) (UniProt Q8IL11)
- Sequence (Q8IL11 whole entry, looked up): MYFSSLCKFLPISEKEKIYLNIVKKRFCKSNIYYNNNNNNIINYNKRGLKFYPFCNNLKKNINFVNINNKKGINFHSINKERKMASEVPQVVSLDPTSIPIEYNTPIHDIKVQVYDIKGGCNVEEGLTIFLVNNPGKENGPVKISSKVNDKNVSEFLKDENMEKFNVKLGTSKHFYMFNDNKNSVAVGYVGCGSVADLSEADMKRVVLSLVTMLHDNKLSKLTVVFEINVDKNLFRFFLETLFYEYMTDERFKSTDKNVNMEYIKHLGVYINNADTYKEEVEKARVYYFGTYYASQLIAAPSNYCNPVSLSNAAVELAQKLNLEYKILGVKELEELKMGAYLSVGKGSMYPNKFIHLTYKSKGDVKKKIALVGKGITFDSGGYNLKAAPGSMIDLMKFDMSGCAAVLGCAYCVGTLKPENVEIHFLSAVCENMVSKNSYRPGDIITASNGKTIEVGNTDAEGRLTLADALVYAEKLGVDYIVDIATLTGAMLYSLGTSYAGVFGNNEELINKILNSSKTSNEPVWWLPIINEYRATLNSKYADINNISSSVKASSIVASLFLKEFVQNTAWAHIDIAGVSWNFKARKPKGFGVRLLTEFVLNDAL
- protocol.notes: P. falciparum M17LAP inhibitors, primary screen, biochemical, fluorogenic H-Leu-NHMec substrate, 1536-well (AID 1619);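 further: plate controls were full reaction with DMSO carrier for no effect and no enzyme background for full effect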
- condition: recombinant M17LAP, H-Leu-NHMec fluorogenic kinetic assay; at 30 µM; active compounds read high
The campaign covered roughly 220,000 compounds. About 830 (0.38%) were called active. Not all results are given here. Entries with a potency or affinity are not part of this list.
Response body: numeric value in %, unit text excluded.

Example entries and their recorded answers appear below.
# molecule, scale.unit, inhibition
measured = [
    ("COC(=O)c1c(NC(=O)CSc2ncnc3[nH]ncc23)sc2c1CCC2", "%", 33),
    ("O=Cc1cccc(Oc2ncccn2)c1", "%", 3.35),
]

Ask: Note inhibition for the molecule shown: Cc1c(CN2CCC(CO)(CC3CCCCO3)CC2)cnn1C (stereo not drawn)
Result: -3.19
